# EC50, CreLuc assay, 0.5% hP listing for each entry below
Molecular target: T1, human neuropeptide Y2 (NPY2) receptor (human, UniProt P49146 1-381)
T1 sequence (looked up): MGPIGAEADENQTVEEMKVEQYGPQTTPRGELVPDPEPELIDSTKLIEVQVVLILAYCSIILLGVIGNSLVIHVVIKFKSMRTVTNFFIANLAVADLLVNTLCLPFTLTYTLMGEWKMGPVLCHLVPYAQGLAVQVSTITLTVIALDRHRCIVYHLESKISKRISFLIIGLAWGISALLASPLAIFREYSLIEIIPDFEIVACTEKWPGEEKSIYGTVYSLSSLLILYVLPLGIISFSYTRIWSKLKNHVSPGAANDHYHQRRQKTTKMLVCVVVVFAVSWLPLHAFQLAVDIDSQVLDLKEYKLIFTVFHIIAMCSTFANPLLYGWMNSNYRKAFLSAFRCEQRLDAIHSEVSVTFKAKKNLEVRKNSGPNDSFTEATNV
Assay: cell-based or functional assay
OBSERVATION TYPE: EC50, CreLuc assay, 0.5% hP (nM)

INSERT INTO assay_data (binder, observation_type, unit_symbol, rel, obs_value) VALUES
  ('YXEGTFTSDYSIXLEKQAQXAFVEWLIKGGPSSYESLRHYYNWLTRQRY (Aib at 2, 13, 20; K28 side chain: C20DA-gGlu-gGlu-gGlu-gGlu-gGlu-gGlu-eLys; C-terminal NH2) [Compound 50]', 'EC50, CreLuc assay, 0.5% hP', 'nM', '=', 11.8),
  ('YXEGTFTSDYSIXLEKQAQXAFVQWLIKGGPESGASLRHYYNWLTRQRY (Aib at 2, 13, 20; K28 side chain: C18DA-gGlu-gGlu-gGlu-gGlu-gGlu; C-terminal NH2) [Compound 53]', 'EC50, CreLuc assay, 0.5% hP', 'nM', '=', 13.2),
  ('YXEGTFTSDYSIXLEKQAQXAFVEWLIKGGPSSGASLRHYLNLXTRQRY (Aib at 2, 13, 20, 44; K28 side chain: C20DA-gGlu-gGlu-gGlu-gGlu-gGlu-gGlu-eLys; C-terminal NH2) [Compound 17]', 'EC50, CreLuc assay, 0.5% hP', 'nM', '>', 100),
  ('YXEGTFTSDYSIXLEKQAQXAFVEWLIKGGPSSGQSXRHYYNWLTRQRY (Aib at 2, 13, 20, 37; K28 side chain: C20DA-gGlu-gGlu-gGlu-gGlu-gGlu-gGlu-eLys; C-terminal NH2) [Compound 44]', 'EC50, CreLuc assay, 0.5% hP', 'nM', '=', 9.35),
  ('YXEGTFTSDYSIXLEKQAQXAFVEWLIKGGPSSGASLRHYXNRXTRQRY (Aib at 2, 13, 20, 41, 44; K28 side chain: C20DA-gGlu-gGlu-gGlu-gGlu-gGlu-gGlu-eLys; C-terminal NH2) [Compound 18]', 'EC50, CreLuc assay, 0.5% hP', 'nM', '=', 85.7),
  ('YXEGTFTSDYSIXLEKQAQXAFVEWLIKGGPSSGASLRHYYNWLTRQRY (Aib at 2, 13, 20; DLeu 37; DHis 39; DArg 46; DTyr 49; K28 side chain: C20DA-gGlu-gGlu-gGlu-gGlu-gGlu-gGlu-eLys; C-terminal NH2) [Compound 5]', 'EC50, CreLuc assay, 0.5% hP', 'nM', '>', 99.9);
